Origin of values: patent US8835476B2

Recorded MIC for the following molecules
Tested on: Ps. aeruginosa ATCC 27853
Experiment: Broth microdilution MIC, ATCC strains
Assay type: cell-based
Settings: Pseudomonas aeruginosa, ATCC27853; Ps. aeruginosa ATCC 27853; read-out: MIC (growth inhibition, microdilution method)
Method: All clinical isolates tested were from The North American Urinary Tract Infection Collaborative Alliance (NAUTICA) which is a UTI surveillance study involving 40 medical centres (30 from the US and 10 from Canada). […] Susceptibilities to the compounds were determined using the National Committee for Clinical Laboratory Standards (NCCLS) M7-A6 broth microdilution method. […] Panels were read following 16 to 20 hours of incubation at 35° C. in ambient air. […]
recordedMetric: MIC

molecule: COC(=O)c1sc(-c2ccc(F)cc2)cc1-c1nnn(C)n1 [DNM-144]
systemTested: Ps. aeruginosa ATCC 27853
recordedMetric: MIC
result: > 8 µg/mL

molecule: CCOC(=O)c1cc(-c2nnn[nH]2)c(-c2ccc(F)cc2)s1 [DNM-124]
systemTested: Ps. aeruginosa ATCC 27853
recordedMetric: MIC
result: > 64 µg/mL

molecule: Fc1ccc(-c2cc(-c3nnn[nH]3)c(-c3ccc(F)cc3)s2)cc1 [DNM-131]
systemTested: Ps. aeruginosa ATCC 27853
recordedMetric: MIC
result: > 32 µg/mL

molecule: Cn1nnc(-c2cc(-c3ccc(F)cc3)sc2-c2ccc(F)cc2)n1 [DNM-132]
systemTested: Ps. aeruginosa ATCC 27853
recordedMetric: MIC
result: > 16 µg/mL

molecule: O=C(O)c1sc(-c2ccc(F)cc2)cc1-c1nnn[nH]1 [DNM-141]
systemTested: Ps. aeruginosa ATCC 27853
recordedMetric: MIC
result: > 16 µg/mL

molecule: Cn1nnc(-c2cc(-c3ccc(F)cc3)sc2C(=O)O)n1 [DNM-142]
systemTested: Ps. aeruginosa ATCC 27853
recordedMetric: MIC
result: > 16 µg/mL

molecule: CCOC(=O)c1cc(-c2nnn(C)n2)c(-c2ccc(F)cc2)s1 [DNM-125]
systemTested: Ps. aeruginosa ATCC 27853
recordedMetric: MIC
result: > 16 µg/mL

molecule: Cn1nnnc1-c1cc(-c2ccc(F)cc2)sc1-c1ccc(F)cc1 [DNM-133]
systemTested: Ps. aeruginosa ATCC 27853
recordedMetric: MIC
result: > 16 µg/mL

molecule: COC(=O)c1sc(-c2ccc(F)cc2)cc1-c1nnnn1C [DNM-145]
systemTested: Ps. aeruginosa ATCC 27853
recordedMetric: MIC
result: > 4 µg/mL

molecule: Cn1nnnc1-c1cc(-c2ccc(F)cc2)sc1C(=O)O [DNM-143]
systemTested: Ps. aeruginosa ATCC 27853
recordedMetric: MIC
result: > 8 µg/mL
